molecular target: Inadl_2, Q8NI35; assay: holdup assay; design: key: below the threshold = too weak to quantify, mostly under pKd 3.1 to 4; conditions: plain residues with an end cap or a label only (N-terminal biotin on a linker: ado-ado)
Sequence (Q8NI35 238-335): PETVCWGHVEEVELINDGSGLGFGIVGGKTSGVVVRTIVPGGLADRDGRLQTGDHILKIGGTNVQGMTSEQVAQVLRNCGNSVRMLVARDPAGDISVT
Readout kind: pKd

Look over these answered cases.
TKEIPNCTSV [SORCS3, Q9UPU3]: below the threshold
FVFESRKEIL [TBPL1, P62380]: below the threshold
GDSSRKEYFI [GYPC, P04921]: 4.99
IKLETKKTKL [SLC15A2, Q16348]: below the threshold
SAGADSETHC [SLCO1B1, Q9Y6L6]: below the threshold

For reference, reported pKd for QKASRNESTF [POLR1D, P0DPB6] stands at below the threshold

The binder identified as SGDGKTSVWI [GJC1, P36383] registered its pKd at below the threshold

GET /value?item= ADEMICITTL [CACNA1D, Q01668] &field=pKd returns below the threshold
